Property: Percent Effect; scope: individual compounds
- testedTarget: Tyrosyl-tRNA synthetase, putative (Trypanosoma cruzi (strain CL Brener)) (UniProt Q4DSP6)
- Sequence (whole entry): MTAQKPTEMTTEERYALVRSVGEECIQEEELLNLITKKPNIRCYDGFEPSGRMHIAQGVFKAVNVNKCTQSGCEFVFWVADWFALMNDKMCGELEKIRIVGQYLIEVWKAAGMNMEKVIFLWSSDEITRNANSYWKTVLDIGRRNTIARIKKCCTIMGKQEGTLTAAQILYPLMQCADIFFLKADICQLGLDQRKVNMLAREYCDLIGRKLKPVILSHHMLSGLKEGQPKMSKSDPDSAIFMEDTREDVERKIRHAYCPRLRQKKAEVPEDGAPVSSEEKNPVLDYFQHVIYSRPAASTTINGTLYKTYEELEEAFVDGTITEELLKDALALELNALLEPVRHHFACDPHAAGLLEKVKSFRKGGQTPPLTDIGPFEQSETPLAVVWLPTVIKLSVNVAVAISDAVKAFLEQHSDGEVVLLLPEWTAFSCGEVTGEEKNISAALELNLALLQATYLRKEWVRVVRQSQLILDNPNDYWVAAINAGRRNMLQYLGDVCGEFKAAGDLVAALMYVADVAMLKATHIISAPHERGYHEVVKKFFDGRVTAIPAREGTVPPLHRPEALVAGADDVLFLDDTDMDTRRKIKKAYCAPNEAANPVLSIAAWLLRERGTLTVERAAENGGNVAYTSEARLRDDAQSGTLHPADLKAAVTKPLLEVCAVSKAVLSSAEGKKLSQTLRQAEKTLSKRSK
- assayProtocol: Trypanosoma cruzi tyrosyl tRNA synthetase (TcYRS) _High Tyrosine SOP; also: in the data most compounds retested in dose-response had high values
- Type: functional
- Set-up: scale not given: direction of the effect not stated beside the values
- condition: 30 µM
Record the value in %, omitting the unit from your answer.

Take a look at these entries with their results.
# compound, quantityKind, valueUnits, number
records = [
    ("CN(C)c1nc2c(c(N3CCC(O)CC3)n1)CN(CC1CCNC1)CC2 (centres undefined)", "Percent Effect", "%", 12.2),
    ("COCCN1C[C@@H]2CCCO[C@@H]2[C@H](NC(=O)c2cnccn2)C1", "Percent Effect", "%", 5.21),
    ("CC(=O)Nc1nc(CN2CCn3c(nnc3C3CC3)C2)cs1", "Percent Effect", "%", 0.99),
    ("Cc1noc(C)c1C(=O)N1CCCC1c1c(C)nn(C)c1Cl (centres undefined)", "Percent Effect", "%", 2.46),
    ("COC(=O)Cn1cccc(S(=O)(=O)N2CCC(C)CC2)c1=O", "Percent Effect", "%", 2.12),
    ("Cc1ccc(OCC(=O)NS(=O)(=O)c2cccnc2)cc1C", "Percent Effect", "%", -1.47),
    ("Cc1cnn(CC2CCCN2CCCc2nc3ccccc3o2)c1 (centres undefined)", "Percent Effect", "%", 6.93),
    ("Fc1cnc(N2CCn3cc(CNc4ccccn4)nc3C2)nc1", "Percent Effect", "%", -1.04),
]

Query block: What does the data say about its Percent Effect? Entry: CC(C)NC(=O)N1CCC2(CC(C(=O)NCc3cccnc3)=NO2)C1 (centres undefined)
Result block: -3.12

====

- Tested on: Trypanosoma cruzi
- assayProtocol: Trypanosoma cruzi phosphomannomutase and mannose-1-phosphate guanylyltransferase assay
- Type: functional
- Parameters: scale not given: direction of the effect not stated beside the values
- condition: 10 µM
quantityKind: Percent Effect (%)
Provide only the numeric value, understood in %.

# count of solved cases: 3
# compound, valueUnits, number
data = [
    ("NC(=O)C1CCN(Cn2nc(-c3ccc(F)cc3)oc2=O)CC1", "%", -22.7),
    ("CCN(CC)C(=O)Cn1ccc2cc(NC(=O)C3CC3)ccc21", "%", 6.39),
    ("O=C(C1CCOCC1)N1C[C@@H]2[C@@H](C1)OCC(=O)N2CC1CC1", "%", -19.1),
]

Query block: Please state recorded Percent Effect (tested on Trypanosoma cruzi) of Cn1ncc2c(=O)[nH]c(CN3CCCC3Cc3ccccc3)nc21 (configuration not stated)
Result block: 9.62

Query block: # returns recorded Percent Effect (system: Trypanosoma cruzi) for CCn1cc(NC(=O)NCC(O)c2ccccc2)cn1 (configuration not stated)
Result block: -1.98

Query block: Form entry - test system: Trypanosoma cruzi; read-out: Percent Effect; compound: CC(CN1CCCC1)C(=O)N1CCC(c2nccn2CC2CC2)CC1 (configuration not stated)
Result block: 10.2

Query block: Checklist item: Percent Effect tested on Trypanosoma cruzi, entry "COc1ccnc(N2CCN(C(=O)c3csc(C4CC4)n3)CC2)n1" , value?
Result block: -2.05

Query block: Which Percent Effect is reported with Trypanosoma cruzi for this entry: CN(Cc1cccc(F)c1)C(=O)CN1CCCC1CCc1ccccc1 (configuration not stated) ?
Result block: 3.44

Query block: Form entry - test system: Trypanosoma cruzi; read-out: Percent Effect; compound: CCCS(=O)(=O)NCC1CCOc2ccccc2C1 (configuration not stated)
Result block: -5.61

Query block: What measured Percent Effect is associated with "O=C(NCc1cnc2n1CCN(c1ncc(F)cn1)CC2)C1CCC1" on Trypanosoma cruzi?
Result block: 2.83
